target: Shiga toxin 2 (Escherichia coli O157:H7) (UniProt P09385+P09386); experiment: E. coli 0.157:H7 Shiga Toxin SOP - stx2 screening assay; type: functional; set-up: scale not given: direction of the effect not stated beside the values; conditions: 30 µM

molecule: Cc1cc(CNc2ccc(C(=O)N3CCCC(C)C3)cc2C)no1 (stereo not drawn)
measurement_target: Shiga toxin 2 (Escherichia coli O157:H7) (UniProt P09385+P09386)
endpoint_unit: %
Percent Effect: 11.6
--
molecule: c1ncn(CC2CN(Cc3csc(C4CCCC4)n3)CCO2)n1 (stereo not drawn)
measurement_target: Shiga toxin 2 (Escherichia coli O157:H7) (UniProt P09385+P09386)
endpoint_unit: %
Percent Effect: 13.4
--
molecule: CN(C)S(=O)(=O)N1CCN(c2ccnc(N3CCCC3)n2)CC1
measurement_target: Shiga toxin 2 (Escherichia coli O157:H7) (UniProt P09385+P09386)
endpoint_unit: %
Percent Effect: -41.2
--
molecule: O=C(CN1CC(n2cccn2)C1)NCCCc1ccccc1
measurement_target: Shiga toxin 2 (Escherichia coli O157:H7) (UniProt P09385+P09386)
endpoint_unit: %
Percent Effect: -22.1
--
molecule: Cn1cc(-c2nc(CN3CCN(CCO)CC3)cs2)cn1
measurement_target: Shiga toxin 2 (Escherichia coli O157:H7) (UniProt P09385+P09386)
endpoint_unit: %
Percent Effect: 22.1
--
molecule: Cc1nc(N2CC[C@@H](NC(=O)c3cnccn3)[C@H](O)C2)c2ccsc2n1
measurement_target: Shiga toxin 2 (Escherichia coli O157:H7) (UniProt P09385+P09386)
endpoint_unit: %
Percent Effect: -6.15
--
molecule: O=C1OCCN1CCc1nc(-c2cc3c4c(c2)CC(=O)N4CCC3)cs1
measurement_target: Shiga toxin 2 (Escherichia coli O157:H7) (UniProt P09385+P09386)
endpoint_unit: %
Percent Effect: 9.08
--
molecule: OC(COc1ccccc1)CN1CCC(c2ccn[nH]2)CC1 (stereo not drawn)
measurement_target: Shiga toxin 2 (Escherichia coli O157:H7) (UniProt P09385+P09386)
endpoint_unit: %
Percent Effect: -7.22
